Taken from the supplement of paper PMC10307832.

Tested on: NCI-H3122
Assay: relative viability (nuclei count vs DMSO), 5 days (fraction); higher = more cells survive
Conditions: first compound 0.1265 µM
value kind: relative viability
Reply with just the number.

Ask: Any idea what its relative viability is? The compound is O=C(O)c1ccc(-c2c[nH]c3ncc(-c4ccccc4)cc23)cc1C1CCCC1 + CS(=O)(=O)N1CCN(Cc2cc3nc(-c4cccc5[nH]ncc45)nc(N4CCOCC4)c3s2)CC1 [Pictilisib] (partner 1 µM)
Reply: 0.683

Ask: Any idea what its relative viability is? The compound is O=C(O)c1ccc(-c2c[nH]c3ncc(-c4ccccc4)cc23)cc1C1CCCC1 + CS(=O)(=O)CCNCc1ccc(-c2ccc3ncnc(Nc4ccc(OCc5cccc(F)c5)c(Cl)c4)c3c2)o1 [Lapatinib] (partner 2 µM)
Reply: 1.01

Ask: Any idea what its relative viability is? The compound is O=C(O)c1ccc(-c2c[nH]c3ncc(-c4ccccc4)cc23)cc1C1CCCC1 + O=C(c1cc(Cc2n[nH]c(=O)c3ccccc23)ccc1F)N1CCN(C(=O)C2CC2)CC1 [Olaparib] (partner 8 µM)
Reply: 0.666

Ask: Any idea what its relative viability is? The compound is O=C(O)c1ccc(-c2c[nH]c3ncc(-c4ccccc4)cc23)cc1C1CCCC1 + Cc1cc(Nc2cc(N3CCN(C)CC3)nc(Sc3ccc(NC(=O)C4CC4)cc3)n2)n[nH]1 [Tozasertib] (partner 0.1 µM)
Reply: 0.45

====

System: COR-L23
Experiment: relative viability (nuclei count vs DMSO), 5 days (fraction); higher = more cells survive
Settings: first compound 0.05 µM
value kind: relative viability
Reply with just the number.

Ask: I'm curious: which relative viability was measured for CC1(C)CCC(c2ccc(Cl)cc2)=C(CN2CCN(c3ccc(C(=O)NS(=O)(=O)c4ccc(N[C@H](CCN5CCOCC5)CSc5ccccc5)c(S(=O)(=O)C(F)(F)F)c4)cc3)CC2)C1 [Navitoclax] + CS(=O)(=O)N1CCN(Cc2cc3nc(-c4cccc5[nH]ncc45)nc(N4CCOCC4)c3s2)CC1 [Pictilisib] (partner 1 µM) tested on COR-L23?
Reply: 0.818

Ask: I'm curious: which relative viability was measured for CC1(C)CCC(c2ccc(Cl)cc2)=C(CN2CCN(c3ccc(C(=O)NS(=O)(=O)c4ccc(N[C@H](CCN5CCOCC5)CSc5ccccc5)c(S(=O)(=O)C(F)(F)F)c4)cc3)CC2)C1 [Navitoclax] + CC(=O)c1c(C)c2cnc(Nc3ccc(N4CCNCC4)cn3)nc2n(C2CCCC2)c1=O [Palbociclib] (partner 0.5 µM) tested on COR-L23?
Reply: 0.28

Ask: I'm curious: which relative viability was measured for CC1(C)CCC(c2ccc(Cl)cc2)=C(CN2CCN(c3ccc(C(=O)NS(=O)(=O)c4ccc(N[C@H](CCN5CCOCC5)CSc5ccccc5)c(S(=O)(=O)C(F)(F)F)c4)cc3)CC2)C1 [Navitoclax] + COc1cc2c(Oc3ccc(NC(=O)C4(C(=O)Nc5ccc(F)cc5)CC4)cc3F)ccnc2cc1OCCCN1CCOCC1 [Foretinib] (partner 0.25 µM) tested on COR-L23?
Reply: 1.02

Ask: I'm curious: which relative viability was measured for CC1(C)CCC(c2ccc(Cl)cc2)=C(CN2CCN(c3ccc(C(=O)NS(=O)(=O)c4ccc(N[C@H](CCN5CCOCC5)CSc5ccccc5)c(S(=O)(=O)C(F)(F)F)c4)cc3)CC2)C1 [Navitoclax] + Cc1cc(Nc2cc(N3CCN(C)CC3)nc(Sc3ccc(NC(=O)C4CC4)cc3)n2)n[nH]1 [Tozasertib] (partner 0.1 µM) tested on COR-L23?
Reply: 0.172

Ask: I'm curious: which relative viability was measured for CC1(C)CCC(c2ccc(Cl)cc2)=C(CN2CCN(c3ccc(C(=O)NS(=O)(=O)c4ccc(N[C@H](CCN5CCOCC5)CSc5ccccc5)c(S(=O)(=O)C(F)(F)F)c4)cc3)CC2)C1 [Navitoclax] + CC(=O)Nc1cccc(-n2c(=O)n(C3CC3)c(=O)c3c(Nc4ccc(I)cc4F)n(C)c(=O)c(C)c32)c1 [Trametinib] (partner 0.02 µM) tested on COR-L23?
Reply: 0.514

Ask: I'm curious: which relative viability was measured for CC1(C)CCC(c2ccc(Cl)cc2)=C(CN2CCN(c3ccc(C(=O)NS(=O)(=O)c4ccc(N[C@H](CCN5CCOCC5)CSc5ccccc5)c(S(=O)(=O)C(F)(F)F)c4)cc3)CC2)C1 [Navitoclax] + Cc1nc(NC(=O)N2CCC[C@H]2C(N)=O)sc1-c1ccnc(C(C)(C)C(F)(F)F)c1 [Alpelisib] (partner 2 µM) tested on COR-L23?
Reply: 0.697
